Exercise: state measured pKi for each of the binders provided.
# testedOn: T1, ClpXP protease (E. coli ClpX6 with ClpP14) (E. coli, UniProt P0A6H1 1-424; P0A6G7 15-207)
# T1 construct: Purified recombinant proteins mixed in the assay; also called SspB-ClpXP (when SspB is added); not shown: N-terminal His6 tag from pET28a; C-terminal His6 tag from pQE70
# experiment: continuous fluorimetric assay of GFP-tag proteolysis by ClpXP, with SspB
Where no end group is shown, it is not given here.
Answers are plain numbers, as −log10 of the molar value.

Query SGWRVQGPL (head-to-tail cyclized (cyclic peptide), also called IXP4) [ICP2, cyclic SGWRVQGPL peptide] yields pKi of 4.68

Query CRGGRPALRVVK (also: cyclized in vitro, ring type not given here) [cycXB, cyclic XB peptide [CRGGRPALRVVK] (Table 4)] yields pKi of 5.10

Query SGSKGVLPL (head-to-tail cyclized (cyclic peptide), Chemically synthesized linear, circularized and HPLC purified; also called IXP3) [ICP1, cyclic SGSKGVLPL peptide] yields pKi of 4.60

Continue with the binder presented below.
Query CRGGRPALRVVK (The text calls XB the 11 C-terminal residues of E. coli SspB; also called linXB) [linear XB peptide, CRGGRPALRVVK] yields pKi of 4.19
